- STUDY_SYSTEM: T1, cynomolgus soluble urokinase plasminogen activator receptor (suPAR) (cynomolgus, UniProt Q9GK78 23-303, limits assumed)
- T1 construct: Column head says only 'cynomologus'; also called cynomolgus suPAR; cynomolgus uPAR
- T1 sequence (Q9GK78 23-303 limits assumed): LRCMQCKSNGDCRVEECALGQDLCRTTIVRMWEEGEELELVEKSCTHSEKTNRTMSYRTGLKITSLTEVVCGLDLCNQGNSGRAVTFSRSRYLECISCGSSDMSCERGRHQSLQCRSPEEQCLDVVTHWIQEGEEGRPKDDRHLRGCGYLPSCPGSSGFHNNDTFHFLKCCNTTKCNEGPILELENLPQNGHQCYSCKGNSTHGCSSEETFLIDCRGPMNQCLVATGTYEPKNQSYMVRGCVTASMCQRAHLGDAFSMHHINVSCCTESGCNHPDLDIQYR
- TEST_NAME: BLI (Octet) off-rate screen of scFv clones
ASSAY_ENDPOINT: koff (s⁻¹)
Please respond with the number in s⁻¹ and leave the unit unwritten.

suPAR_DB05_A10 (scFv, V domains shown, Screened as scFv) VH: QVQLVQSGAEVKKPGASVKVSCKASGYTFTNYYIHWVRQAPGQGLEWMGWIDPSNGNTIYDQKFQGRVTMTRDTSTSTVYMELSSLRSEDTAVYYCARGYDVDWFVYWGQGTLVTVSS VL: DIQMTQSPSSLSASVGDRVTITCSARSSVSYMYWYQQKPGKAPKLLIYRTSNLASGVPSRFSGSGSGTDFTLTISSLQPEDFATYYCQQYHSYPPTFGGGTKVEIK | 0.000462

Input line: // koff lookup, key: suPAR_DB04_H06 (scFv, V domains shown, Screened as scFv) VH: QVQLVQSGAEVKKPGASVKVSCKASGYTFTNYYVHWVRQAPGQGLEWMGWIDHENGNTSYAQKFQGRVTMTRDTSTSTVYMELSSLRSEDTAVYYCARGYDVDWFVYWGQGTLVTVSS VL: DIQMTQSPSSLSASVGDRVTITCSARSSVSYMYWYQQKPGKAPKLLIYRTSNLQSGVPSRFSGSGSGTDFTLTISSLQPEDFATYYCQQYHSYPPTFGGGTKVEIK
Output line: 0.000289
